Tested on: Serratia marcescens
ASSAY_INFO: Antimicrobial activity against Serratia marcescens GC 4142 expressing AmpC in presence of 4 ug/mL piperacillin
Format: functional
MEASURED_PARAMETER: MIC (µg/mL)
Hi! Could you send only the number? It should be in µg/mL, unit omitted.

What measured MIC is associated with `Cc1ccc2c(c1)sc1nc(/C=C3/C(=O)N4C(C(=O)[O-])=CS[C@H]34)cn12.[Na+]` on Serratia marcescens? 1

Field: MIC (Serratia marcescens). Entry: `O=C([O-])C1=CS[C@@H]2/C(=C\c3cn4c(n3)sc3cc(Cl)ccc34)C(=O)N12.[Na+]` 2

What reported MIC corresponds to `COc1ccc2c(c1)sc1nc(/C=C3/C(=O)N4C(C(=O)[O-])=CS[C@H]34)cn12.[Na+]` on Serratia marcescens? 2

Request: MIC, test system Serratia marcescens, entry `O=C([O-])C1=CS[C@@H]2/C(=C\c3cn4c5c(sc4n3)CCC5)C(=O)N12.[Na+]` 2

For Serratia marcescens, provide MIC of `O=C([O-])C1=CS[C@@H]2/C(=C\c3cn4c(n3)sc3cc(F)ccc34)C(=O)N12.[Na+]` please. 2

State its MIC on Serratia marcescens: `Cc1cccc2sc3nc(/C=C4/C(=O)N5C(C(=O)[O-])=CS[C@H]45)cn3c12.[Na+]` 4

Provide the documented MIC with Serratia marcescens as the system for `O=C([O-])C1=CS[C@@H]2/C(=C\c3cn4c(n3)sc3ccccc34)C(=O)N12.[Na+]` 1
